Data origin, for the record: patent US10428140B2

# tested_system: T1, human EphB2 (Homo sapiens, UniProt P29323)
# T1 construct: a protein of the extracellular region of each human Eph receptor fused with the SEAP protein and the His tag; made in house; host or cells: Expi293F cells
# T1 sequence (P29323 19-543 limits assumed): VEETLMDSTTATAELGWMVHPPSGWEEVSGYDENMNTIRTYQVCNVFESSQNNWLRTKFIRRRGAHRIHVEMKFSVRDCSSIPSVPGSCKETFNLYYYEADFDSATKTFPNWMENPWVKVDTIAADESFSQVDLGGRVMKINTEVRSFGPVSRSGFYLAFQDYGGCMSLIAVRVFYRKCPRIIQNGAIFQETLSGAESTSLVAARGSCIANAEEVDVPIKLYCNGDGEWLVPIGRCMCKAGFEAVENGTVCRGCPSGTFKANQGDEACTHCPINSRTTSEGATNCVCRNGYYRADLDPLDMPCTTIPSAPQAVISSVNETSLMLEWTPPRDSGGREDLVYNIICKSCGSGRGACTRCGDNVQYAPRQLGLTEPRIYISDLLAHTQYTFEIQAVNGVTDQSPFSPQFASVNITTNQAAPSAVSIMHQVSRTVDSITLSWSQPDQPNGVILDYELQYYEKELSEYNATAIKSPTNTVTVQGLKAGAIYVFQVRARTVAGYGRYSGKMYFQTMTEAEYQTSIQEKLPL
# assay_procedure: Selectivity ELISA of humanized antibodies for human Eph receptor
# Format: binding
# condition_details: coated protein 1 nM
property_label: hEphB2-SEAP-: absorbance at 450 nm, percentage with respect to hEphA4-SEAP-His as 100% (%)
Your answer should be a plain number; it is taken to be in %.

Enquiry: Sample 82 (antibody, V domains shown, constant regions without entry; synthetic humanized antibody light chain variable region sequence; synthetic humanized antibody heavy chain variable region sequence) VL: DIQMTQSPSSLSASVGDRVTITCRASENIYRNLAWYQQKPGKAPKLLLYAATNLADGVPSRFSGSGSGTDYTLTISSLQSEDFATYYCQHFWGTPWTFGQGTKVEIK VH: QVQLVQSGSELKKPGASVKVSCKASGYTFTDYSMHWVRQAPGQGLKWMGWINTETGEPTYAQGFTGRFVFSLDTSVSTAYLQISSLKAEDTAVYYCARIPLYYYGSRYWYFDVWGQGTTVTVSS — what was its hEphB2-SEAP-: absorbance at 450 nm, percentage with respect to hEphA4-SEAP-His as 100%?
Return: 5.6
